species: Homo sapiens; assay: Inhibition of human platelet aggregation induced by ADP after 3 min incubation with platelet rich plasma; assay type: functional; conditions: 0.05 h
experimental readout: IC50 (nM)

These solved cases illustrate the format of a correct answer.
Cl.O=C(NCCCOc1ccc2[nH]c3nc(O)nc-3cc2c1)N1CCN(Cc2ccccc2)CC1 ... 310
Cl.O=S(=O)(CCCCOc1ccc2[nH]c3nc(O)nc-3cc2c1)C1CCNCC1 ... 14800
Cl.O=S(=O)(CCCCOc1ccc2[nH]c3nc(O)nc-3cc2c1)C1CCN(Cc2ccc(F)cc2)CC1 ... 67
Cl.O=S(=O)(CCCOc1ccc2[nH]c3nc(O)nc-3cc2c1)C1CCN(Cc2ccccc2)CC1 ... 25

I = Cl.Oc1nc2cc3cc(OCCCc4nnnn4C4CCNCC4)ccc3[nH]c-2n1
II = Cl.O=S(=O)(CCCOc1ccc2[nH]c3nc(O)nc-3cc2c1)C1CCN(Cc2cccc(C(F)(F)F)c2)CC1
Among I and II , which shows a numerically higher IC50 result? Mark your answer with the label of the selected entry. I

1 = Cl.O=C(NCCCOc1ccc2[nH]c3nc(O)nc-3cc2c1)N1CCNCC1
2 = CC(C)CN1CCC(n2nnnc2CCCCOc2ccc3[nH]c4nc(O)nc-4cc3c2)CC1.Cl
3 = Cl.O=C(NCCCOc1ccc2[nH]c3nc(O)nc-3cc2c1)N1CCN(CC2CCCCCC2)CC1
4 = Cl.O=S(=O)(CCCOc1ccc2[nH]c3nc(O)nc-3cc2c1)N1CCN(CCc2ccccc2)CC1
Rank by IC50 (largest to smallest). Dear reader, please state the labels in the requested order. 1, 4, 3, 2

1 = CC(C)CN1CCN(C(=O)NCCCOc2ccc3[nH]c4nc(O)nc-4cc3c2)CC1.Cl
2 = Cl.O=C(NCCCOc1ccc2[nH]c3nc(O)nc-3cc2c1)N1CCN(Cc2ccc(F)cc2)CC1
Consider entries 1 and 2 . Which has the numerically lower IC50? Mark your answer with the label of the selected entry. 1
